Quick reference: Slope (slope angle of Lineweaver–Burk line) of the listed items.
experimental target: Catalase from human erythrocytes (EC 1.11.1.6, CAT) (Homo sapiens)
Construct: Catalase from human erythrocytes (EC 1.11.1.6, CAT); purchased Sigma–Aldrich (Poznań, Poland); host or cells: human erythrocytes (natural source)
Sequence (P04040 2-527 limits assumed): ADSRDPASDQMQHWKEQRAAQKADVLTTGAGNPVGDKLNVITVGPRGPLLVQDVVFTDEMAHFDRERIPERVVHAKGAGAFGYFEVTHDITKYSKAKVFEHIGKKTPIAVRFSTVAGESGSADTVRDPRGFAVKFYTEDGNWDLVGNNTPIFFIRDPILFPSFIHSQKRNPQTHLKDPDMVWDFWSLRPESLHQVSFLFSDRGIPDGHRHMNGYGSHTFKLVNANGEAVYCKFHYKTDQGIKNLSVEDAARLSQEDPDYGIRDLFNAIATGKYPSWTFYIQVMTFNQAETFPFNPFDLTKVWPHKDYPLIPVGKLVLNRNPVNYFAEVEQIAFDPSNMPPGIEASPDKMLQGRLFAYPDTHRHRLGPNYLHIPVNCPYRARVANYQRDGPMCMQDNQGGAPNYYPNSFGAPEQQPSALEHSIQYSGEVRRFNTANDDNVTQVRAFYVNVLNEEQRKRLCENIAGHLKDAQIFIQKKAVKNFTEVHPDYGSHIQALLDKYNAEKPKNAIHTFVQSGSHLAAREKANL
procedure details: Catalase (CAT) inhibition kinetics by capillary electrophoresis (hydrogen peroxide/guaiacol/tetraguaiacol)
Assay type: biochemical
assay conditions: inhibitor 10.00 mM; n = 6
Respond numerically, and do not add a unit to the figure.

Check out these entries, answers already filled in.
CN(C)CC(O)CN1C(=O)C2C(C1=O)C1(C)C(=O)C2(C)C(c2ccccc2)=C1c1ccccc1 (stereo not drawn): 26.24
CCC12C(=O)C(CC)(C(c3ccccc3)=C1c1ccccc1)C1C(=O)N(CC(O)CN(C)C)C(=O)C12 (stereo not drawn): 25.30

Now look at this one.
Look up Slope (slope angle of Lineweaver–Burk line): CC(C)NCC(O)CN1C(=O)C2C(C1=O)C1(C)C(=O)C2(C)C(c2ccccc2)=C1c1ccccc1 (stereo not drawn) 28.60
